Record form. Attribute: GI50. Fill in for each entry.
tested on: NCI/ADR-RES; test: NCI tumour cell line growth inhibition, 48 h
Calls of active or inactive are those of the source. No stated cut-off is given here; in the data, active = GI50 up to about 1.1 µM and inactive = higher.

GI50 reading for COc1ccc(C2=NN(C(=O)c3ccc(Cl)cc3)C(O)(c3cc(F)c(Cl)cc3Cl)C2)cc1 (stereo not given) : 48.3 µM (inactive)

Please fill in: GI50 reported for Nc1sccc1S(=O)(=O)c1ccsc1N = > 100 µM (inactive)

// sample COc1cc(OC)cc(-c2nc3cc(F)ccc3s2)c1 , its GI50 was > 100 µM (inactive)

GET /value?item= CCC(N)(C(=O)O)C(C)C (stereo not given) &field=GI50 returns > 100 µM (inactive)

GI50 measured on COC(=O)[C@@]12CC3CN(Cc4c1[nH]c1ccccc41)C2CC3=O = > 100 µM (inactive)

Lab book: GI50 of [Se]=P(c1ccccc1)(c1ccccc1)c1ccc(C(c2ccccc2)=P(c2ccccc2)(c2ccccc2)c2ccccc2)cc1 noted as 7.67 µM (inactive)

In plain terms, CC(C)(C)C(=O)OCC1CCC[N+]2(C)CCCCC12 (stereo not given) has a documented GI50 of > 100 µM (inactive)

Given item CC(C)CCC[C@@H](C)C1CCC2[C@@H]3CCC4C[C@@H](NS(C)(=O)=O)CC[C@]4(C)C3CC[C@@]21C (stereo not given in full) , the value recorded as its GI50 is > 100 µM (inactive)

Data point: COc1ccc([C@@H]2ON(C)[C@H]3CN(C)C(=O)[C@@H]23)cc1 ; GI50 = > 100 µM (inactive)

Sample COc1cc(S(=O)(=O)Nc2ccc(-c3csc(/N=C\c4cccc(Oc5ccccc5)c4)n3)cc2)ccc1Cl ; GI50 observed: 96.4 µM (inactive)

---

What GI50 was measured for each of the following?
system: NCI-H23; test: NCI tumour cell line growth inhibition, 48 h
Calls of active or inactive are those of the source. Rule as the data show it: active = GI50 up to about 1.1 µM and inactive = higher.

Input CCOc1ccc(N(CC(=O)N2CC(=O)Nc3cc(C)c(C)cc32)C(C)=O)cc1 . Output GI50: > 100 µM (inactive)

Entry CC1=Nc2nc(Cl)cn2C(=O)C1(Cl)Cl , GI50 reported as > 10 µM (inactive)

Looking up COc1ccc(-c2c3c(nc4[nH]c(=S)[nH]c(=S)c24)CCCC3)cc1OC , I found its GI50 recorded as 29.3 µM (inactive)

The compound [O-][S+]1c2ccccc2N=C(c2cccc3ccccc23)CC1c1cccc2ccccc12 (stereo not given) showed GI50 equal to 20.3 µM (inactive)

Reported GI50 ( CC(=O)O[C@H]1CC[C@@H](OC(C)=O)[C@H]2[C@H](O)[C@H](O)[C@@H]1n1c(=O)n(-c3ccccc3)c(=O)n12 ) = > 100 µM (inactive)

Field GI50 (entry CC(=O)NCc1c(C(N)=O)ncn1Cc1ccccc1 ) reads > 100 µM (inactive)

Kindly note the recorded GI50 for O=C(Nn1c(-c2ccccc2)nc2ccccc2c1=O)c1ccc([N+](=O)[O-])cc1 , which is > 100 µM (inactive)

// field: GI50; key: O=c1[nH]c(=O)n(C2OC(CO)C(O)C2O)c2ccsc12 (stereo not given) ; value = > 100 µM (inactive)

// sample COC(=O)/N=[N+](\[O-])C(c1ccccc1)c1ccccc1 , its GI50 was 29.1 µM (inactive)

The compound listed as CC(=O)C1=CN=C2C(=O)N(c3ccccc3)N(C)C12C (stereo not given) shows GI50 equal to > 100 µM (inactive)
